Assay: yeast display, Sf9 membrane polyspecificity reagent, FACS + sequencing; frameworks hold sequencing errors
quantity kind: polyreactivity (PSR sort gate)

Look over these answered cases.
[[record]]
sequence_code = "QVQLVESGGGLVQAGGSLRLSCAASGSIFGRNAMGWYRQAPGKERELVAGISWSGGSTYYADSVKGRFTISRDNAKNTVYLQMNSLKPEDTAVYYCAADYWTWSGFTYYNYEYWGQGTQVTVSS"
measurement = "high polyreactivity"

[[record]]
sequence_code = "QVQLVDTGGGLVQAGGSLRLSCAASGSTFYFNAMGWYRLAPGKERELVAAISYSGGSTYYADSVKGRFTISRDNAKNTVYFQMNSLKPEDTAVYYCNARGLKSYYPGYWFRGDDWGQGTQVTVSS"
measurement = "high polyreactivity"

[[record]]
sequence_code = "QVQLVESGGGLVQAGGSLRLSCAASGFTFRVNAMGWYRQAPGKERELVAAITYSGGSTYYADSVKGRFTISRDNAKNTVYLQMNSLKPEDTAVYYCNKARWNSWLYGYHYRGLRSYDYWGQGTQVSVSS"
measurement = "high polyreactivity"

[[record]]
sequence_code = "QVQLVESGGGLVQAGGSLRLICAASGSTIGGYVMGWYRQAPGKERELVAAISRSGASTYYADSVKGRFTISRDNAKNTVYLQMNSLKQEDTAVYYCAAYQARGMDYWGQGTQVTVSS"
measurement = "high polyreactivity"

[[record]]
sequence_code = "QVQLVESGGGLVQAGGRLRLSCAASGRIFSYNAMGWYRQAPGKERELVAGITSGGRTYYADSVKGRFTISRDNAKNTVYLLIYSLKPEDTAVYYCGARYVPARSGYYYWGQGTQVTVSS"
measurement = "high polyreactivity"


(Q) Can you look up the measured polyreactivity (PSR sort gate) of `QVQLLESGGGLVQAGGSLRLSCAASGSTFRWYAMGWYRQAPGRERELVAAITWSGGRTYYADSVKGRFTISRDNAKNTVYLQMNSLKPEYTAVYYCNAVYYHVVDFDYWGQGTQVTVSS` for me?
(A) high polyreactivity

(Q) # iterate: `QVQLVESGGGLVQAGGSLRLSCAASGFIFHRYAMGWYRQAPGKERELVAAISRRGGSTYYADSVKGRFTISRDNAKNTVYLQMNSLKPEDTAVYYCARTVGDRTLLESDSWGQGTQVTVSS`
(A) high polyreactivity

(Q) # iterate: `QVQLVQSGGGLVQAGGSLRLSCAASGSTFYQYAMGWYRQSPGKERELVAAISRSGSTNYADSVKGRFTHSRDNAQNTVYLQMNSMKPEDSAVYYCAARLGTRQYKMDYWGQGTQVTVSS`
(A) high polyreactivity

(Q) # iterate: `QVQLVESGGGLVQAGGSLRLSCAASGYTFRYYAMGWYRQAPGKERELVAAISSGGSTYYADSVKGRFTISRDNAKNTVYLQMNSLKPEDTAVYYCATGPRIRYDYWGQGTQVTVSS`
(A) high polyreactivity

(Q) # iterate: `QVQLVESGGGLVQAGGSLRLSCASSGRTFRSYAMGWYRQAPGKERELVAAITYSGGNTYYADSVKGRFTISRDNAKNTVYLQMNSLKPEDTAVYYCAYLKTPRGYDYWGQGTQVTVSS`
(A) high polyreactivity
